Recorded values, source patent US11807625B2.

protocol_description: PK of compound of Formula (Ia) after single subcutaneous dose of solution formulations in beagle dogs
Type: in vivo
condition_label: male, beagle, dog, plasma, sc, 6 mg/kg, 72.0 h; mean, n = 3 dogs; SC 6 mg/kg; solution V, 300 mg/mL
property_label: concentration at 72 h (nM)

chemical_string	measured_value
CC(C)(C#Cc1ccc(-c2ccc(Cl)c3c(NS(C)(=O)=O)nn(CC(F)(F)F)c23)c([C@H](Cc2cc(F)cc(F)c2)NC(=O)Cn2nc(C(F)(F)F)c3c2C(F)(F)[C@@H]2C[C@H]32)n1)S(C)(=O)=O	31.3

----------
protocol_description: PK of compound of Formula (Ia) after single intramuscular dose of solution formulations in Wistar Han rats
Type: in vivo
condition_label: male, Wistar Han, rat, plasma, intramuscular, 100 mg/kg, 8.00 h; mean, n = 4 rats; IM 100 mg/kg; solution M, 500 mg/mL; read-out: Plasma concentration

chemical_string	concentration at 8 h
CC(C)(C#Cc1ccc(-c2ccc(Cl)c3c(NS(C)(=O)=O)nn(CC(F)(F)F)c23)c([C@H](Cc2cc(F)cc(F)c2)NC(=O)Cn2nc(C(F)(F)F)c3c2C(F)(F)[C@@H]2C[C@H]32)n1)S(C)(=O)=O	0.544 µM
